The entries below come with measured EC50 values attached.
Target: Tag-free human IL6 recombinant protein (GenScript, Cat. No. Z03034) (human, UniProt P05231 30-212)
Sequence (P05231 30-212, one chain of several): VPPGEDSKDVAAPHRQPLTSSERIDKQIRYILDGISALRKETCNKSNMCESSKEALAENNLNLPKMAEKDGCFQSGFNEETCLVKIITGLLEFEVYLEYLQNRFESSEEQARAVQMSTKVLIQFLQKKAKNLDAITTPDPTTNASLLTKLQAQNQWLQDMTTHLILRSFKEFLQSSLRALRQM
Experiment: ELISA
API: value field is a number in µg/mL; no unit string.

# Binder, Readout Units, Value Reported
records = [
    ("49F10H6 (antibody, V domains shown) VH: QVQLQQPGAELVKPGASVKMSCKASGYTFTNYIIHWIKQTPGQGLEWIGAIYPGNGDTSYSQKFKDKATLTADRSSSTAYMQLSSLTSEDSAVYYCARGDAGYSAWFAYWGQGTLVTVSA VL: NIVLTQSPASLAVSLGQRATISCSASESVDSYGNNFMHWYQQRPGQPPKLLIYLASKLESGVPARFSGSGSRTEFTLTIDPVEAEDAATYYCQQNNEDPLTFGAGTKLELK", "µg/mL", 0.0153),
    ("23A9H3 (antibody, V domains shown) VH: QVQLQQSGAELAKPGASVKMSCKTSGYTFTNYWMHWVKQRPGQGLEWIGYVIPSTGYTDYNQSFKDKATLTADKSSNTAYMQVNSLTSEDSAVYYCASLLPGFAYWGQGTLVTVSA VL: DVVMTQTPLSLPVSLGDQASISCRSSQSLVDSNGNTYLHWYLQKPGQSPKLLIYKVSNRFSGVPDRFSGSGSGTDFTLKISRVEAEDLGVYFCSQSTHVPPTFGGGTKLEIK", "µg/mL", 0.0163),
    ("61G1D8 (rat) (antibody, V domains shown) VH: EVQLLESGGGLVQPGRSMKLSCAASGFTFSSFPMAWVRQTPSKALEWVATISPSGGTSYSRDSVKGRFTISRDNANSTLCLHMDSLKSEDTATYYCLRERIYNTYFDYWGQGVMVTVSS VL: DIRMTHSPASLSASLGETVSIECLPSEDISSDLAWYQQKPGKSPQLLIYNANTLPNGVPSRFSGSRSGAQYFLKINSLQSEDVATYFCQQYDSYPYTFGTGTKLELK", "µg/mL", 0.0196),
]

Q. Give the reported EC50 for this binder. 29D6B5 (antibody, V domains shown) VH: QVQLQQSGAELAEPGASVKMSCKASGYNFNNYWMHWVKQGPGQGLEWIGYIDPRTASIYYNQKFKDKATLTADKSSSTAYMQLSSLTSEDSAVYYCARILYGKYDVWGAGTTVIVSS VL: DVVLTQTPLSLPVSLGNQASISCRSSQSLVDSNGNTYLHWYLQKPGQSPKVLIHKVSNRFSGVPDRFSGSGSGTDFTLKISRVEAEDLGVYFCSQSTHVPPTFGGGTKLEIK
A. 0.0231
